Attribution: patent US12006328B2

// reported I10 μM/ICONTROL (mean ± SEM, %) Glu N2C per item
- target_entity: GluN2C-containing NMDA receptors (Homo sapiens)
- protocol_summary: Two-electrode voltage-clamp recordings from Xenopus laevis oocytes, GluN2C
- Assay type: cell-based
- measurement_setup: 10 μM test compound with glutamate 100 μM and glycine 30 μM; percent of response without compound; Tables 1-5

# compound, I10 μM/ICONTROL (mean ± SEM, %) Glu N2C
measured = [
    ("Cc1sc2ncn(CC(=O)N3CCCC3)c(=O)c2c1-c1ccc(N=[N+]=[N-])cc1", "146 ± 6.4%"),
    ("Cc1sc2ncn(CC(=O)c3ccccc3)c(=O)c2c1-c1cccc(I)c1", "161 ± 10.9%"),
    ("C#CCn1cnc2sc(C)c(-c3cccc(Cl)c3)c2c1=O", "98 ± 7.9%"),
    ("Cc1sc2ncn(CC(=O)N3CCCC3)c(=O)c2c1-c1cc(F)cc(F)c1", "114 ± 0.9%"),
    ("Cc1sc2ncn(CC(=O)Oc3ccccc3)c(=O)c2c1-c1cccc(Cl)c1", "110 ± 5.9%"),
    ("Cc1sc2ncn(CCC(=O)N3CCCC3)c(=O)c2c1-c1cccc(Cl)c1", "99 ± 5.0%"),
    ("O=C(Cn1cnc2scc(-c3ccc(I)cc3)c2c1=O)N1CCCC1", "110 ± 2.1%"),
    ("COC(=O)[C@@H]1CCCN1C(=O)Cn1cnc2sc(C)c(-c3ccc(Br)cc3)c2c1=O", "159 ± 9.5%"),
    ("Cc1sc2ncn(CC(=O)N3CCCC3)c(=O)c2c1-c1cccc(-n2ccnc2)c1", "112 ± 1.3%"),
    ("CCOC(=O)CNC(=O)Cn1cnc2sc(C)c(-c3ccc(Br)cc3)c2c1=O", "104 ± 2.5%"),
    ("Cc1sc2ncn(CC(=O)N3CCCC3)c(=O)c2c1-c1ccccc1C(F)(F)F", "95 ± 2.1%"),
    ("Cc1sc2ncn(CC(=O)N3CCCC3)c(=O)c2c1-c1cc(Br)cc(Br)c1", "195 ± 6.9%"),
    ("Cc1sc2ncn(CC(=O)c3cccs3)c(=O)c2c1-c1cccc(I)c1", "180 ± 10.7%"),
    ("Cc1sc2ncn(CC(=O)N3CCC[C@H]3C(=O)O)c(=O)c2c1-c1ccc(Cl)cc1 [1 / 4-Cl—Ph / Me / —Nproline (S)]", "104 ± 2.3%"),
    ("O=C(Cn1cnc2sc3c(c2c1=O)CCCC3)c1ccc([N+](=O)[O-])cc1", "93 ± 2.0%"),
    ("Cc1sc2ncn(CC(=O)N3CCCC3)c(=O)c2c1-c1ccc2c(c1)CCC2", "185 ± 11.4%"),
    ("O=C(Cn1cnc2sc3c(c2c1=O)CCCC3)c1ccc(Cl)cc1Cl", "106 ± 4.4%"),
]

====

- target_entity: GluN2C-containing NMDA receptors (Homo sapiens, UniProt Q14957)
- Sequence (Q14957 20-1233, other chains not shown): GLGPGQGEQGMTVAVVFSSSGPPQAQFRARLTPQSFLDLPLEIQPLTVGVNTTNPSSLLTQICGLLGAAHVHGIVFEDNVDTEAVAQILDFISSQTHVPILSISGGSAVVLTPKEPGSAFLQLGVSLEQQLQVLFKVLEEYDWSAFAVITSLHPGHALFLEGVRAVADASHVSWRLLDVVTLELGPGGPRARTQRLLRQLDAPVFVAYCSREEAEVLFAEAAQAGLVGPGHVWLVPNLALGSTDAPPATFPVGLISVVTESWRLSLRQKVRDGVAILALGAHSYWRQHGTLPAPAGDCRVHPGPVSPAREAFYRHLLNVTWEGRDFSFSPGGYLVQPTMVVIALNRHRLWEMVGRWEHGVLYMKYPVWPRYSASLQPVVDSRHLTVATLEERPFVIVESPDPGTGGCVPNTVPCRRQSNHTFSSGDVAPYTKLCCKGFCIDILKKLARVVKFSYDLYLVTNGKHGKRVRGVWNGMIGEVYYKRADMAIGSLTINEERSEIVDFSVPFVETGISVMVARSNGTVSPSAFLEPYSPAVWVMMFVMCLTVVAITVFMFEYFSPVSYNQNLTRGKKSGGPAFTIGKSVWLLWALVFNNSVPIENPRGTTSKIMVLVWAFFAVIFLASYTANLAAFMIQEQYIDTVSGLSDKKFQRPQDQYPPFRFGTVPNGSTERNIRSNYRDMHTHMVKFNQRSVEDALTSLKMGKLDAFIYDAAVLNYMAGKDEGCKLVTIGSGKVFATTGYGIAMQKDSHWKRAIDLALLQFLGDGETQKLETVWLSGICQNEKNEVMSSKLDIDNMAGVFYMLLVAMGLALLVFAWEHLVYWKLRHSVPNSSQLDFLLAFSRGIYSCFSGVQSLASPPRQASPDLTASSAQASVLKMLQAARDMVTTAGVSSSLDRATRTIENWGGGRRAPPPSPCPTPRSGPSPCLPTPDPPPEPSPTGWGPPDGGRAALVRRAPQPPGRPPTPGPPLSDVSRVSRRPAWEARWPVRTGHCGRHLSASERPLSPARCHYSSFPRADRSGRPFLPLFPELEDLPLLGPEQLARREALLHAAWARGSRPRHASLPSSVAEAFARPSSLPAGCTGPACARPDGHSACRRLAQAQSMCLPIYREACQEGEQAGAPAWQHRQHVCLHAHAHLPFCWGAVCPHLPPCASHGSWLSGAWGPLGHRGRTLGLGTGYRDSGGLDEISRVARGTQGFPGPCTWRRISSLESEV
- protocol_summary: Two-electrode voltage-clamp recordings from Xenopus laevis oocytes, GluN2C
- measurement_setup: Table 1; glutamate 100 μM, glycine 30 μM; Hill fit; read-out: EC50 Glu N2C
outcome_measure: EC50

# molecule, target_entity, outcome_measure, result
data = [
    ("O=C(Cn1cnc2scc(-c3ccc(I)cc3)c2c1=O)N1CCCC1 [4-I—Ph / H]", "GluN2C-containing NMDA receptors (Homo sapiens, UniProt Q14957)", "EC50", "89 µM"),
    ("Cc1sc2ncn(CC(=O)N3CCCC3)c(=O)c2c1-c1ccc(Cl)cc1 [4-Cl—Ph / Me]", "GluN2C-containing NMDA receptors (Homo sapiens, UniProt Q14957)", "EC50", "15 µM"),
    ("Cc1sc2ncn(CC(=O)N3CCCC3)c(=O)c2c1-c1cccc(-n2cncn2)c1 [3-1,2,4 triazolyl-Ph / Me]", "GluN2C-containing NMDA receptors (Homo sapiens, UniProt Q14957)", "EC50", "44 µM"),
    ("Cc1sc2ncn(CC(=O)N3CCCC3)c(=O)c2c1-c1cc(Br)cc(Br)c1 [3,5-Br—Ph / Me]", "GluN2C-containing NMDA receptors (Homo sapiens, UniProt Q14957)", "EC50", "2.2 µM"),
    ("CCc1ccc(-c2csc3ncn(CC(=O)N4CCCC4)c(=O)c23)cc1 [4-Et—Ph / H]", "GluN2C-containing NMDA receptors (Homo sapiens, UniProt Q14957)", "EC50", "66 µM"),
    ("Cc1ccc(-c2csc3ncn(CC(=O)N4CCCC4)c(=O)c23)cc1 [4-Me—Ph / H]", "GluN2C-containing NMDA receptors (Homo sapiens, UniProt Q14957)", "EC50", "207 µM"),
    ("Cc1sc2ncn(CC(=O)N3CCCC3)c(=O)c2c1-c1ccc2c(c1)CCC2 [3,4-(CH2)3—Ph / Me]", "GluN2C-containing NMDA receptors (Homo sapiens, UniProt Q14957)", "EC50", "26 µM"),
    ("CCOc1ccc(-c2c(C)sc3ncn(CC(=O)N4CCCC4)c(=O)c23)cc1 [4-OEt—Ph / Me]", "GluN2C-containing NMDA receptors (Homo sapiens, UniProt Q14957)", "EC50", "18 µM"),
]
